- method_summary: in vitro
- test_conditions: human, liver microsomes
experimental_endpoint: CLint scaled (mL/min/kg)
Answers are plain numbers, in mL/min/kg.

Data request: For the compound c1cc(C2CCCN(CCc3cscn3)C2)nc(NC2CC2)n1 (stereo unspecified) , what CLint scaled is on record?
Data returned: 15

----------
- method_summary: in vitro
- test_conditions: human, liver microsomes, CL
experimental_endpoint: CLint scaled (mL/min/kg)
Numbers only, in mL/min/kg.

Consider the reported CLint scaled for these compounds:
1. O=C1CC2(CCCC2)CC(=O)N1CCCCN1CCN(c2ncccn2)CC1 ... 148
2. Cc1[nH]c2ccc(Cl)cc2c1CCN1CCCC(c2ccnc(NC3CC3)n2)C1 (stereo not drawn) ... 135

Data request: Fill in: CLint scaled of Fc1cccc2c(CCN3CCCC(c4ccnc(NC5CC5)n4)C3)c[nH]c12 (stereo not drawn) is ___
Data returned: 28
